- System: Primary human epidermal keratinocytes, HeKa
- experiment: HeKa cytokine release (IL-8) assay
- Type: cell-based
- conditions-used: 6 h, read-out: HeKa cytokine release (IL-8) Rel EC50 range
pEC50: −log10 of the molar value.
property-measured: pEC50

Query :: Which pEC50 value is on record for CC1=C[C@]23C(=O)[C@@H](C=C(CO)[C@@H](O)[C@]2(O)[C@H]1OC(=O)c1ccccc1Oc1ccccc1)[C@H]1[C@@H](C[C@H]3C)C1(C)C [Compound 322, Ingenol 3-(2-phenoxy-benzoate)] ?
Result :: > 7.70

Query :: Which pEC50 value is on record for CC1=C[C@]23C(=O)[C@@H](C=C(CO)[C@@H](O)[C@]2(O)[C@H]1OC(=O)c1ccccc1C(C)C)[C@H]1[C@@H](C[C@H]3C)C1(C)C [Compound 323, Ingenol 3-(2-isopropyl-benzoate)] ?
Result :: > 7.70

Query :: Which pEC50 value is on record for CC1=C[C@]23C(=O)[C@@H](C=C(CO)[C@@H](O)[C@]2(O)[C@H]1OC(=O)c1c(N)cccc1Cl)[C@H]1[C@@H](C[C@H]3C)C1(C)C [Compound 340, Ingenol 3-(2-amino-6-chloro-benzoate)] ?
Result :: 7.00 to 7.70

Query :: Which pEC50 value is on record for CC1=C[C@]23C(=O)[C@@H](C=C(CO)[C@@H](O)[C@]2(O)[C@H]1OC(=O)c1c(Cl)cccc1Cl)[C@H]1[C@@H](C[C@H]3C)C1(C)C [Compound 317, Ingenol 3-(2,6-dichloro-benzoate)] ?
Result :: > 7.70

Query :: Which pEC50 value is on record for CNc1cccc(Cl)c1C(=O)O[C@H]1C(C)=C[C@]23C(=O)[C@@H](C=C(CO)[C@@H](O)[C@]12O)[C@H]1[C@@H](C[C@H]3C)C1(C)C ?
Result :: > 7.70

Query :: Which pEC50 value is on record for CC1=C[C@]23C(=O)[C@@H](C=C(CO)[C@@H](O)[C@]2(O)[C@H]1OC(=O)c1c(C)cccc1NC(=O)C(C)C)[C@H]1[C@@H](C[C@H]3C)C1(C)C ?
Result :: < 7.00

Query :: Which pEC50 value is on record for CC1=C[C@]23C(=O)[C@@H](C=C(CO)[C@@H](O)[C@]2(O)[C@H]1OC(=O)c1c(C)cccc1NCc1ccccc1)[C@H]1[C@@H](C[C@H]3C)C1(C)C ?
Result :: > 7.70

Query :: Which pEC50 value is on record for CC1=C[C@]23C(=O)[C@@H](C=C(CO)[C@@H](O)[C@]2(O)[C@H]1OC(=O)c1ccccc1Br)[C@H]1[C@@H](C[C@H]3C)C1(C)C [Compound 321, Ingenol 3-(2-bromo-benzoate)] ?
Result :: > 7.70

Query :: Which pEC50 value is on record for CC1=C[C@]23C(=O)[C@@H](C=C(CO)[C@@H](O)[C@]2(O)[C@H]1OC(=O)c1ccccc1Nc1ccccc1)[C@H]1[C@@H](C[C@H]3C)C1(C)C [Compound 336, Ingenol 3-(2-phenylamino-benzoate)] ?
Result :: > 7.70

Query :: Which pEC50 value is on record for CC1=C[C@]23C(=O)[C@@H](C=C(CO)[C@@H](O)[C@]2(O)[C@H]1OC(=O)C1CC1)[C@H]1[C@@H](C[C@H]3C)C1(C)C [Compound 301, Ingenol 3-(cyclopropanecarboxylate)] ?
Result :: < 7.00

Query :: Which pEC50 value is on record for COc1ccc(C(=O)O[C@H]2C(C)=C[C@]34C(=O)[C@@H](C=C(CO)[C@@H](O)[C@]23O)[C@H]2[C@@H](C[C@H]4C)C2(C)C)cc1 [Compound 313, Ingenol 3-(4-methoxy-benzoate)] ?
Result :: > 7.70

Query :: Which pEC50 value is on record for CC1=C[C@]23C(=O)[C@@H](C=C(CO)[C@@H](O)[C@]2(O)[C@H]1OC(=O)C12C[C@@H]4CC1C[C@@H](C4)C2)[C@H]1[C@@H](C[C@H]3C)C1(C)C [Compound 307, Ingenol 3-(noradamantane-3-carboxylate)] ?
Result :: > 7.70

Query :: Which pEC50 value is on record for CNc1cccc(F)c1C(=O)O[C@H]1C(C)=C[C@]23C(=O)[C@@H](C=C(CO)[C@@H](O)[C@]12O)[C@H]1[C@@H](C[C@H]3C)C1(C)C ?
Result :: > 7.70

Query :: Which pEC50 value is on record for CC1=C[C@]23C(=O)[C@@H](C=C(CO)[C@@H](O)[C@]2(O)[C@H]1OC(=O)C1(C)CCCCC1)[C@H]1[C@@H](C[C@H]3C)C1(C)C ?
Result :: > 7.70

Query :: Which pEC50 value is on record for COc1ccccc1C(=O)O[C@H]1C(C)=C[C@]23C(=O)[C@@H](C=C(CO)[C@@H](O)[C@]12O)[C@H]1[C@@H](C[C@H]3C)C1(C)C [Compound 312, Ingenol 3-(2-methoxy-benzoate)] ?
Result :: 7.00 to 7.70

Query :: Which pEC50 value is on record for COc1cccc(OC)c1C(=O)O[C@H]1C(C)=C[C@]23C(=O)[C@@H](C=C(CO)[C@@H](O)[C@]12O)[C@H]1[C@@H](C[C@H]3C)C1(C)C [Compound 316, Ingenol 3-(2,6-dimethoxy-benzoate)] ?
Result :: 7.00 to 7.70

Query :: Which pEC50 value is on record for CC1=C[C@]23C(=O)[C@@H](C=C(CO)[C@@H](O)[C@]2(O)[C@H]1OC(=O)c1ccc(F)cc1)[C@H]1[C@@H](C[C@H]3C)C1(C)C [Compound 311, Ingenol 3-(4-fluoro-benzoate)] ?
Result :: > 7.70
